Tested on: Pseudomonas aeruginosa
test_summary: Antibacterial activity against Pseudomonas aeruginosa CCM 1961 after 24 to 48 hrs by broth microdilution method
Assay type: functional, organism-based
The source made the active and inactive calls. The calls are words filed in the database; no cut-off is given here.
measured_endpoint: Activity

Example compounds with recorded Activity:
{"smiles_representation": "CCCCCCCCNc1cnc(C(=O)Nc2ccccc2)cn1", "target_desc": "Pseudomonas aeruginosa", "Activity": "inactive"}
{"smiles_representation": "CCCCNc1cnc(C(=O)Nc2ccccc2Cl)cn1", "target_desc": "Pseudomonas aeruginosa", "Activity": "inactive"}
{"smiles_representation": "CCCNc1cnc(C(=O)Nc2ccccc2Cl)cn1", "target_desc": "Pseudomonas aeruginosa", "Activity": "inactive"}
{"smiles_representation": "O=C(Nc1ccccc1Cl)c1cnc(NCCO)cn1", "target_desc": "Pseudomonas aeruginosa", "Activity": "inactive"}
{"smiles_representation": "O=C(Nc1ccccc1Cl)c1cnc(NCCCCCO)cn1", "target_desc": "Pseudomonas aeruginosa", "Activity": "inactive"}

Each compound below has a reported value. Please supply its Activity.
1. O=C(Nc1ccccc1)c1cnc(NCCc2ccccc2)cn1
2. CCCCCCNc1cnc(C(=O)Nc2ccccc2Cl)cn1
3. O=C(Nc1ccccc1)c1cnc(NCCCc2ccccc2)cn1

inactive
inactive
inactive
